Tested on: Caco-2 cells
Experiment: Caco-2 permeability assay (apical to basolateral)
Assay type: in vitro ADME, human
Parameters: unit not given here
Conditions: Caco-2 Papp, replicate 3
Where a SMILES comes first, the peptide text is derived from it. [ ]: non-standard residue; d: D form. NMeL = CN[C@@H](CC(C)C)C(=O)O; NMeV = CN[C@H](C(=O)O)C(C)C
recorded endpoint: Caco_R3
No unit in the answer, please; the number alone is enough.

Enquiry: # lookup: Caco_R3 of CC[C@@H](C)[C@H]1NC(=O)[C@H](CC(C)C)NC(=O)[C@@H](CC(C)C)NC(=O)[C@H](C(C)C)NC(=O)[C@@H](Cc2ccccc2)N(C)C(=O)[C@@H]2CCCN2C(=O)[C@@H](CC(C)C)NC(=O)[C@H](CC(C)C)NC(=O)[C@H]2CCCN2C1=O (single isomer, unassigned) [Design D9.4.p1]
Return: 6

Enquiry: Cool, now CC(C)C[C@H]1C(=O)N2CCC[C@@H]2C(=O)N(C)[C@@H](C(C)C)C(=O)N[C@@H](C(C)C)C(=O)N2CCC[C@H]2C(=O)N2CCC[C@@H]2C(=O)N[C@@H](C)C(=O)N[C@H](C(C)C)C(=O)N(C)[C@@H](CC(C)C)C(=O)N[C@@H](C)C(=O)N1C [Design D10.5] (cyclo(A[NMeL][dP][NMeV]VP[dP]A[dV][NMeL]))
Return: 0.08

Enquiry: Continue with CC[C@H](C)[C@@H]1NC(=O)[C@H](Cc2ccccc2)N(C)C(=O)[C@H](CC(C)C)N(C)C(=O)[C@@H](C(C)C)NC(=O)[C@@H](C)NC(=O)[C@@H]2CCCN2C(=O)[C@@H](CC(C)C)NC(=O)[C@@H]2CCCN2C(=O)[C@H](C)NC1=O (single isomer, unassigned) [Design D9.6.p1]
Return: 4.47

Enquiry: Next record, please: CC[C@H](C)[C@@H]1NC(=O)[C@@H](CC(C)C)NC(=O)[C@H](CC(C)C)N(C)C(=O)[C@H](Cc2ccccc2)NC(=O)CN(C)C(=O)[C@@H]2CCCN2C(=O)[C@H](C(C)C)NC(=O)[C@H](Cc2ccccc2)N(C)C(=O)[C@H]2CCCN2C(=O)[C@H](CC(C)C)NC1=O (single isomer, unassigned) [Design D10.1.p2]
Return: 4.01

Enquiry: Same question for CC[C@H](C)[C@@H]1NC(=O)[C@@H](C(C)C)NC(=O)[C@@H]2CCCN2C(=O)[C@@H](CC(C)C)N(C)C(=O)[C@@H](C(C)C)NC(=O)[C@H](CC(C)C)N(C)C(=O)[C@H]2CCCN2C(=O)[C@@H](C)NC(=O)[C@H](Cc2ccccc2)N(C)C(=O)[C@H]2CCCN2C1=O (single isomer, unassigned) [Design D10.3.p2] please.
Return: 2.63
